# experimentNotes: chemical genetic growth profiling, strain panel (AID 1159580);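 also: tested at 20 µM; growth read once vehicle control cultures reached saturation at 30 °C; 1 = growth at the plate median or of vehicle wells; lower values mean less growth of the strain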
# testSettings: S. cerevisiae deletion strains, growth OD, locus YOL147C, strain pex11
Out of some 5,500 compounds screened, about 2,000 (36%) were called active. About 18% were inconclusive and are not listed. Rule as the data show it: active = normalized growth mostly below about 0.91 (no sharp cut-off); inconclusive = no clear call, values can overlap the other calls; inactive = mostly above about 0.92. This is one part of the list.
Lab note: assign the record to one of class 1 = active, class 0 = inactive

CCOP(=S)(OCC)Oc1ccc2c(C)c(Cl)c(=O)oc2c1 = class 0
CCCSP(=O)(OCC)SCCC = class 0
CN=C1CN(O)C(c2ccccc2)=c2cc(Cl)ccc2=N1 = class 0
c1cc2c(cc1[C@H]1OC[C@H]3[C@@H]1CO[C@H]3c1ccc3c(c1)OCO3)OCO2 = class 1
CCn1cc(C(=O)O)c(=O)c2cnc(N3CCNCC3)nc21 = class 0
CCN(CC)CCOC(=O)C(Cc1cccc2ccccc12)CC1CCCO1 (centres undefined) = class 0
CC(COc1ccccc1)N(CCCl)Cc1ccccc1 (centres undefined) = class 0
C[C@@H]1CC2C3CCC4=CC(=O)C=C[C@]4(C)[C@@]3(F)[C@@H](O)C[C@]2(C)[C@@]1(O)C(=O)COP(=O)(O)O (some centres undefined) = class 0

Next:
Field: outcome | Entry: CO[C@@H]1C[C@@H](C[C@H]2CC[C@H](C)[C@H]([C@@H](C)C(=O)O)O2)O[C@]2(O[C@](C)([C@H]3CC[C@@](C)(C4O[C@@H](C5O[C@@](O)(CO)[C@H](C)C[C@@H]5C)C[C@@H]4C)O3)C[C@H]2C)[C@@H]1C (some centres undefined) class 0

###

# experimentNotes: chemical genetic growth profiling, strain panel (AID 1159580)
# testSettings: S. cerevisiae deletion strains, growth OD, locus YPR167C, strain met16, stronger effect = lower value
Among all 5,500 compounds or so, about 2,000 (36%) were called active. Not shown: some 18% with an inconclusive outcome. The list shows a part of the results.
quantityMeasured: normalized growth
Write the number on its own, no unit after it.

// Input: COc1ccc(C[C@H](N)C(=O)N[C@@H]2[C@@H](CO)OC(n3cnc4c(N(C)C)ncnc43)[C@@H]2O)cc1 (some centres undefined) . Output its normalized growth only. 1.02

// Input: `CCOc1ccc2c(c1)C(C)=CC(C)(C)N2` . Output its normalized growth only. 0.987

// Input: `S=c1[nH]c2ccccc2s1` . Output its normalized growth only. 1.02

// Input: `COc1ccccc1-c1cc(=O)c2cccc(OC)c2o1` . Output its normalized growth only. 0.964

// Input: CC1(C)CC2C1CCC1(C)OC2(C)CCC1O (centres undefined) . Output its normalized growth only. 1.01

// Input: CCOC(=O)CCCCCCCCCCCCC1C=CCC1 (centres undefined) . Output its normalized growth only. 0.0627

// Input: `C[C@@]12C(=O)OC(=O)[C@]1(C)C1CCC2O1` . Output its normalized growth only. 0.786

// Input: `O=C1O[C@@H](CO)[C@H](O)[C@@H](O)[C@@H]1O` . Output its normalized growth only. 1.01

// Input: `CC12CCC(CC1)C(C)(C)O2` . Output its normalized growth only. 1.02

###

Recorded measurements of normalized growth, one per entry
# experimentNotes: chemical genetic growth profiling, strain panel (AID 1159580)
# testSettings: S. cerevisiae deletion strains, growth OD, locus YLL041C, strain sdh2, stronger effect = lower value
Screen size: about 5,500 compounds; about 2,000 (36%) were called active. Roughly 18% stayed inconclusive and do not appear here. The list shows a part of the results.
Write the number on its own, no unit after it.

Example entries begin here.
C[C@](N)(Cc1ccc(O)cc1)C(=O)O = 0.997
CC(Cc1ccc(O)c(O)c1)(NN)C(=O)O (centres undefined) = 1.01
C[C@](N)(Cc1ccc(O)c(O)c1)C(=O)O = 0.994

Please find the next compound below.
// Input: CC[C@@H](C(=O)[C@@H](C)[C@@H](O)[C@H](C)[C@@H]1O[C@@H]([C@@H](CC)C(=O)O)CC[C@@H]1C)[C@H]1OC2(C=C[C@@H](O)[C@]3(CC[C@@](C)([C@H]4CC[C@](O)(CC)[C@H](C)O4)O3)O2)[C@H](C)C[C@@H]1C (some centres undefined) . Output its normalized growth only. 0.926

###

# experimentNotes: chemical genetic growth profiling, strain panel (AID 1159580)
# testSettings: S. cerevisiae deletion strains, growth OD, locus YDR334W, strain swr1, stronger effect = lower value
The campaign covered roughly 5,500 compounds. About 2,000 (36%) were called active. Inconclusive results (about 18%) are left out. The list shows a part of the results.
Recorded measurements of normalized growth, one per entry
Write the number on its own, no unit after it.

// Input: CN(Cc1cnc2nc(N)nc(N)c2n1)c1ccc(C(=O)NC(CCC(=O)O)C(=O)O)cc1 (centres undefined) . Output its normalized growth only. 0.881

// Input: `C[C@@H]1C[C@@H]([C@H](O)CC2CC(=O)NC(=O)C2)C(=O)[C@@H](C)C1` . Output its normalized growth only. 0.0608

// Input: `CC1=C(/C=C/C(C)=C/C=C/C(C)=C/C(=O)O)C(C)(C)CCC1` . Output its normalized growth only. 1.02

// Input: `COc1ccc(/C=C/C(=O)c2cc(O)ccc2O)cc1` . Output its normalized growth only. 0.172

// Input: Nc1nc2c(c(=O)[nH]1)N(C=O)C(CNc1ccc(C(=O)N[C@@H](CCC(=O)O)C(=O)O)cc1)CN2 (some centres undefined) . Output its normalized growth only. 0.934

// Input: Nc1nc(N)c2nc(CNc3ccc(C(=O)NC(CCC(=O)O)C(=O)O)cc3)cnc2n1 (centres undefined) . Output its normalized growth only. 0.985

// Input: `CC1=C(/C=C/C(C)=C/C=C/C(C)=C\C(=O)O)C(C)(C)CCC1` . Output its normalized growth only. 0.982

// Input: `COc1cc(/C=C/C(=O)O)cc(OC)c1OC` . Output its normalized growth only. 0.987

// Input: `CC1=C(/C=C/C(C)=C/C=C/C(C)=C/C=C/C=C(C)/C=C/C=C(C)/C=C/C2=C(C)CCCC2(C)C)C(C)(C)CCC1` . Output its normalized growth only. 0.99

###

# experimentNotes: chemical genetic growth profiling, strain panel (AID 1159580);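 also: tested at 20 µM; growth read once vehicle control cultures reached saturation at 30 °C; 1 = growth at the plate median or of vehicle wells; lower values mean less growth of the strain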
# testSettings: S. cerevisiae deletion strains, growth OD, locus YOR136W, strain idh2, stronger effect = lower value
About 2,000 (36%) of roughly 5,500 compounds were called active. Inconclusive results (about 18%) are left out. The list shows a part of the results.
quantityMeasured: normalized growth
Write the number on its own, no unit after it.

CCOP(=S)(OCC)SCSCC = 1
COP(=S)(OC)Oc1ccc(SC)c(C)c1 = 0.985

// Input: `CCOc1ccc2c(c1)C(C)=CC(C)(C)N2` . Output its normalized growth only. 0.99

// Input: `CO[C@@H]1[C@@H](O[C@@H]2O[C@H](C)[C@@H](O[C@H]3C[C@@](C)(O)[C@H](O)[C@H](C)O3)[C@H](N(C)C)[C@H]2O)[C@@H](CC=O)C[C@@H](C)[C@@H](O[C@H]2CC[C@H](N(C)C)[C@@H](C)O2)/C=C/C=C/C[C@H](C)OC(=O)C[C@H]1O` . Output its normalized growth only. 1

// Input: CC[C@@H]1[C@@H](O)N2C3C[C@H]1C1C(O)[C@]4(C[C@@H]12)c1ccccc1N(C)[C@@H]34 (stereo partly drawn) . Output its normalized growth only. 0.98

###

Recorded measurements of normalized growth, one per entry
# experimentNotes: chemical genetic growth profiling, strain panel (AID 1159580);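 also: tested at 20 µM; growth read once vehicle control cultures reached saturation at 30 °C; 1 = growth at the plate median or of vehicle wells; lower values mean less growth of the strain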
# testSettings: S. cerevisiae deletion strains, growth OD, locus YFR019W, strain FAB1, stronger effect = lower value
In all, about 5,500 compounds went through this assay and about 2,000 (36%) were called active. Inconclusive results (about 18%) are left out. The list shows a part of the results.
Write the number on its own, no unit after it.

Example entries begin here.
O=C(CCSc1cccs1)Nc1cccc(C(F)(F)F)c1 = 0.931
O=C1/C(=C/c2c(F)cccc2Cl)Cc2ccccc21 = 0.903
O=C(Nc1ccc(Cl)cc1Cl)c1cnccc1C(F)(F)F = 0.98
CC(=O)C(Sc1nc2ccccc2s1)C(C)=O = 0.836
CC12CC[C@@H](O)CC1=CC[C@@H]1C2CCC2(C)C(=O)CC[C@@H]12 (some centres not stated) = 0.801

// Input: `O=S(=O)(Nc1cc(C(F)(F)F)ccc1F)c1cc(C(F)(F)F)ccc1Cl` . Output its normalized growth only. 0.894

// Input: `CSc1c(C#N)c(-c2ccc(Cl)cc2)nn1C(=O)c1ccccc1Cl` . Output its normalized growth only. 1

###

# experimentNotes: chemical genetic growth profiling, strain panel (AID 1159580);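 also: tested at 20 µM; growth read once vehicle control cultures reached saturation at 30 °C; 1 = growth at the plate median or of vehicle wells; lower values mean less growth of the strain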
# testSettings: S. cerevisiae deletion strains, growth OD, locus YGL248W, strain PDE1
Among all 5,500 compounds or so, about 2,000 (36%) were called active. Inconclusive results (about 18%) are left out. Cut-off read from the data, not from the text of the source: active = normalized growth mostly below about 0.91 (no sharp cut-off); inconclusive = no clear call, values can overlap the other calls; inactive = mostly above about 0.92. The list shows a part of the results.
Lab note: assign the record to one of TRUE for active, FALSE for inactive

Field: outcome | Entry: `COc1ccccc1-c1cc(=O)c2c(OC)cccc2o1` FALSE

Field: outcome | Entry: `NC(=O)c1cnccn1` FALSE

Field: outcome | Entry: `Oc1ccc(/C=C/c2cc(O)cc(O)c2)cc1` FALSE

Field: outcome | Entry: C=CCN1CC[C@]23c4c5ccc(O)c4OC2C(=O)CC[C@@]3(O)[C@H]1C5 (some centres not stated) FALSE

Field: outcome | Entry: CC1(C)CC2C1CCC1(C)OC2(C)CCC1O (configuration not stated) FALSE

Field: outcome | Entry: `CCn1cc(C(=O)O)c(=O)c2cc3c(cc21)OCO3` FALSE

Field: outcome | Entry: OCC(S)CS (configuration not stated) FALSE
